Tested on: OVCAR-3
Test: NCI tumour cell line growth inhibition, 48 h
Active and inactive are the calls of the source. Rule as the data show it: active = GI50 up to about 1.1 µM and inactive = higher.
Field: GI50. Provide a value for each of the compounds that follow.

Log: OVCAR-3, compound C/C=C(\C)C(=O)OC1C(C)=C2C(C1OC(=O)CCCC)C(C)(OC(C)=O)CC(OC(=O)CCCC)C1(O)C2OC(=O)C1(C)O (stereo not given) , GI50 = 0.925 µM (active)

Log: OVCAR-3, compound COC(=O)c1ccccc1/C=C1\Cc2ccc3c(c2C1=O)CCCC3 , GI50 = > 100 µM (inactive)

Log: OVCAR-3, compound COc1ccc2c(OC)c3ccoc3nc2c1O , GI50 = > 100 µM (inactive)

Log: OVCAR-3, compound COc1ccc(/C=N/n2c(C)n[nH]c2=O)c(OC)c1 , GI50 = > 100 µM (inactive)

Log: OVCAR-3, compound C/C(=N\O)c1ccc2cc(Br)c3ccccc3c2c1 , GI50 = 16.9 µM (inactive)

###

Test system: LOX IMVI
Assay: NCI tumour cell line growth inhibition, 48 h
The source made the active and inactive calls. No stated cut-off is given here; in the data, active = GI50 up to about 1.1 µM and inactive = higher.
Property: GI50

COc1ccc(-c2csc3c2[N+]2(C)C=CC=C2C3N2CCCC2)cc1 (stereo unspecified) has a reported GI50 of 35 µM (inactive)

Cc1ccc2nc3c(=O)[nH]c(=O)nc-3n(C)c2c1C has a reported GI50 of > 100 µM (inactive)

CCCc1cc(=O)oc2c3c(c4c(c12)OC(C)(C)CC4)O[C@@H](C)[C@H](C)[C@H]3O has a reported GI50 of 15.4 µM (inactive)

CC(C(=O)NCCNC(=O)CCC(=O)N(C)O)C(=O)NCCNC(=O)CCC(=O)N(C)O has a reported GI50 of > 100 µM (inactive)

C=C1Oc2nc3ccccc3c(=O)n2C1(C)C has a reported GI50 of > 100 µM (inactive)

COc1ccc([C@@]23CCC(=O)C[C@@H]2N(C)CC3)cc1OC has a reported GI50 of > 100 µM (inactive)

Cc1cc(OP2(=O)NCc3ccncc3O2)ccc1Cl (stereo unspecified) has a reported GI50 of > 100 µM (inactive)

CCCCCCCCCCC(O)CCCCCCC(=O)O (stereo unspecified) has a reported GI50 of 15.8 µM (inactive)

CS(=O)(=O)c1n[nH]c2nc(O)nc(O)c12 has a reported GI50 of > 10 µM (inactive)

C[C@@H](C[C@H]1OC(C)(C)O[C@@H]1C(C)(C)O)[C@H]1CC=C2[C@]3(C)[C@H](O)C[C@H]4C(C)(C)[C@H](O)CC[C@]4(C)[C@H]3CC[C@]21C has a reported GI50 of 8.13 µM (inactive)

COc1cc(C)cc(C(=O)/C=C/c2ccccc2)c1O has a reported GI50 of 17.4 µM (inactive)

###

System: HOP-62
Test: NCI tumour cell line growth inhibition, 48 h
Active and inactive are the calls of the source. Cut-off read from the data, not from the text of the source: active = GI50 up to about 1.1 µM and inactive = higher.
Property: GI50

Log: HOP-62, compound CC(C(=O)NCCNC(=O)CCC(=O)N(C)O)C(=O)NCCNC(=O)CCC(=O)N(C)O , GI50 = > 100 µM (inactive)

Log: HOP-62, compound O=c1cc(N2CCOCC2)[nH]c(=O)n1-c1cccc(Cl)c1 , GI50 = > 100 µM (inactive)

Log: HOP-62, compound O=C1c2ccccc2C(=O)c2c1ccc(O)c2O , GI50 = > 100 µM (inactive)

Log: HOP-62, compound O=C(O)CC(Cc1ccccc1Cl)C(=O)O (configuration not stated) , GI50 = > 100 µM (inactive)

Log: HOP-62, compound CC(C)=CCC[C@@H](C)C1=C(Nc2ccccc2F)C(=O)C(C)=C(O)C1=O , GI50 = 9.98 µM (inactive)

Log: HOP-62, compound O=P1(O)c2ccccc2CS(=O)(=O)Cc2ccccc21 , GI50 = > 100 µM (inactive)

Log: HOP-62, compound C/C=C/C1=C(Cl)C(=O)[C@@H](Cl)[C@@]1(O)C(=O)OC [(+)-CRYPTOSPORIPSIN] , GI50 = 1.52 µM (inactive)
